# systemUnderTest: TMEM63B
# assayMethodText: reporter assay of Huesken 2005; also: test concentration or dose not given here
# measurementContext: siRNA
Oligonucleotides are given in HELM: sugar(base)linkage, 5' to 3'; d 2'-deoxyribose, r ribose, m 2'-O-methylribose, p phosphate. ss, as = sense and antisense strand
normalised inhibition (eCFP-eYFP dual reporter) listing for selected substances.
Give the value, in units of %, as a plain number.

substance: RNA1{r(G)p.r(C)p.r(C)p.r(U)p.r(U)p.r(U)p.r(G)p.r(U)p.r(C)p.r(A)p.r(C)p.r(C)p.r(U)p.r(U)p.r(C)p.r(C)p.r(A)p.r(C)p.r(A)p.d(T)p.d(T)}|RNA2{r(U)p.r(G)p.r(U)p.r(G)p.r(G)p.r(A)p.r(A)p.r(G)p.r(G)p.r(U)p.r(G)p.r(A)p.r(C)p.r(A)p.r(A)p.r(A)p.r(G)p.r(G)p.r(C)p.d(C)p.d(A)}$$$RNA1{StrandType:ss}|RNA2{StrandType:as}$
observed: 72.5

Continue with the next substance.
Query block: What measured normalised inhibition (eCFP-eYFP dual reporter) goes with RNA1{r(C)p.r(A)p.r(C)p.r(U)p.r(U)p.r(C)p.r(A)p.r(A)p.r(A)p.r(U)p.r(A)p.r(C)p.r(C)p.r(U)p.r(C)p.r(A)p.r(G)p.r(U)p.r(G)p.d(T)p.d(T)}|RNA2{r(C)p.r(A)p.r(C)p.r(U)p.r(G)p.r(A)p.r(G)p.r(G)p.r(U)p.r(A)p.r(U)p.r(U)p.r(U)p.r(G)p.r(A)p.r(A)p.r(G)p.r(U)p.r(G)p.d(T)p.d(C)}$$$RNA1{StrandType:ss}|RNA2{StrandType:as}$ ?
Result block: 55

* * *

# systemUnderTest: UBE2K
# assayMethodText: reporter assay of Huesken 2005
# measurementContext: siRNA
Oligonucleotides are given in HELM: sugar(base)linkage, 5' to 3'; d 2'-deoxyribose, r ribose, m 2'-O-methylribose, p phosphate. ss, as = sense and antisense strand
normalised inhibition (eCFP-eYFP dual reporter) listing for selected substances.
Give the value, in units of %, as a plain number.

Query block: What measured normalised inhibition (eCFP-eYFP dual reporter) goes with RNA1{r(A)p.r(U)p.r(A)p.r(G)p.r(C)p.r(A)p.r(G)p.r(G)p.r(A)p.r(C)p.r(C)p.r(U)p.r(C)p.r(C)p.r(A)p.r(G)p.r(A)p.r(C)p.r(A)p.d(T)p.d(T)}|RNA2{r(U)p.r(G)p.r(U)p.r(C)p.r(U)p.r(G)p.r(G)p.r(A)p.r(G)p.r(G)p.r(U)p.r(C)p.r(C)p.r(U)p.r(G)p.r(C)p.r(U)p.r(A)p.r(U)p.d(T)p.d(T)}$$$RNA1{StrandType:ss}|RNA2{StrandType:as}$ ?
Result block: 69.8

Query block: What measured normalised inhibition (eCFP-eYFP dual reporter) goes with RNA1{r(A)p.r(A)p.r(U)p.r(A)p.r(G)p.r(C)p.r(A)p.r(G)p.r(G)p.r(A)p.r(C)p.r(C)p.r(U)p.r(C)p.r(C)p.r(A)p.r(G)p.r(A)p.r(C)p.d(T)p.d(T)}|RNA2{r(G)p.r(U)p.r(C)p.r(U)p.r(G)p.r(G)p.r(A)p.r(G)p.r(G)p.r(U)p.r(C)p.r(C)p.r(U)p.r(G)p.r(C)p.r(U)p.r(A)p.r(U)p.r(U)p.d(T)p.d(C)}$$$RNA1{StrandType:ss}|RNA2{StrandType:as}$ ?
Result block: 56.1

Query block: What measured normalised inhibition (eCFP-eYFP dual reporter) goes with RNA1{r(A)p.r(G)p.r(A)p.r(U)p.r(G)p.r(A)p.r(U)p.r(C)p.r(C)p.r(A)p.r(C)p.r(A)p.r(G)p.r(G)p.r(A)p.r(U)p.r(G)p.r(C)p.r(U)p.d(T)p.d(T)}|RNA2{r(A)p.r(G)p.r(C)p.r(A)p.r(U)p.r(C)p.r(C)p.r(U)p.r(G)p.r(U)p.r(G)p.r(G)p.r(A)p.r(U)p.r(C)p.r(A)p.r(U)p.r(C)p.r(U)p.d(G)p.d(G)}$$$RNA1{StrandType:ss}|RNA2{StrandType:as}$ ?
Result block: 68

Query block: What measured normalised inhibition (eCFP-eYFP dual reporter) goes with RNA1{r(A)p.r(U)p.r(C)p.r(A)p.r(A)p.r(U)p.r(G)p.r(G)p.r(G)p.r(C)p.r(A)p.r(G)p.r(C)p.r(U)p.r(G)p.r(C)p.r(A)p.r(A)p.r(U)p.d(T)p.d(T)}|RNA2{r(A)p.r(U)p.r(U)p.r(G)p.r(C)p.r(A)p.r(G)p.r(C)p.r(U)p.r(G)p.r(C)p.r(C)p.r(C)p.r(A)p.r(U)p.r(U)p.r(G)p.r(A)p.r(U)p.d(C)p.d(T)}$$$RNA1{StrandType:ss}|RNA2{StrandType:as}$ ?
Result block: 48.4

Query block: What measured normalised inhibition (eCFP-eYFP dual reporter) goes with RNA1{r(U)p.r(A)p.r(C)p.r(A)p.r(A)p.r(A)p.r(C)p.r(A)p.r(A)p.r(A)p.r(A)p.r(U)p.r(C)p.r(C)p.r(C)p.r(G)p.r(A)p.r(A)p.r(A)p.d(T)p.d(T)}|RNA2{r(U)p.r(U)p.r(U)p.r(C)p.r(G)p.r(G)p.r(G)p.r(A)p.r(U)p.r(U)p.r(U)p.r(U)p.r(G)p.r(U)p.r(U)p.r(U)p.r(G)p.r(U)p.r(A)p.d(C)p.d(T)}$$$RNA1{StrandType:ss}|RNA2{StrandType:as}$ ?
Result block: 66.1

Query block: What measured normalised inhibition (eCFP-eYFP dual reporter) goes with RNA1{r(C)p.r(C)p.r(A)p.r(G)p.r(A)p.r(A)p.r(A)p.r(C)p.r(A)p.r(U)p.r(A)p.r(C)p.r(C)p.r(C)p.r(A)p.r(U)p.r(U)p.r(U)p.r(A)p.d(T)p.d(T)}|RNA2{r(U)p.r(A)p.r(A)p.r(A)p.r(U)p.r(G)p.r(G)p.r(G)p.r(U)p.r(A)p.r(U)p.r(G)p.r(U)p.r(U)p.r(U)p.r(C)p.r(U)p.r(G)p.r(G)p.d(T)p.d(A)}$$$RNA1{StrandType:ss}|RNA2{StrandType:as}$ ?
Result block: 72.4

Query block: What measured normalised inhibition (eCFP-eYFP dual reporter) goes with RNA1{r(C)p.r(A)p.r(C)p.r(C)p.r(A)p.r(U)p.r(A)p.r(U)p.r(G)p.r(A)p.r(A)p.r(G)p.r(G)p.r(A)p.r(G)p.r(G)p.r(A)p.r(A)p.r(G)p.d(T)p.d(T)}|RNA2{r(C)p.r(U)p.r(U)p.r(C)p.r(C)p.r(U)p.r(C)p.r(C)p.r(U)p.r(U)p.r(C)p.r(A)p.r(U)p.r(A)p.r(U)p.r(G)p.r(G)p.r(U)p.r(G)p.d(T)p.d(G)}$$$RNA1{StrandType:ss}|RNA2{StrandType:as}$ ?
Result block: 69.5

* * *

# systemUnderTest: Cacnb1 (rat)
# assayMethodText: reporter assay of Huesken 2005
# measurementContext: siRNA
Oligonucleotides are given in HELM: sugar(base)linkage, 5' to 3'; d 2'-deoxyribose, r ribose, m 2'-O-methylribose, p phosphate. ss, as = sense and antisense strand
measuredQuantity: normalised inhibition (eCFP-eYFP dual reporter) (%)
Give the value, in units of %, as a plain number.

Example cases with answers are listed next.
substance: RNA1{r(A)p.r(C)p.r(A)p.r(C)p.r(G)p.r(G)p.r(A)p.r(G)p.r(C)p.r(C)p.r(A)p.r(G)p.r(G)p.r(A)p.r(G)p.r(A)p.r(C)p.r(U)p.r(C)p.d(T)p.d(T)}|RNA2{r(G)p.r(A)p.r(G)p.r(U)p.r(C)p.r(U)p.r(C)p.r(C)p.r(U)p.r(G)p.r(G)p.r(C)p.r(U)p.r(C)p.r(C)p.r(G)p.r(U)p.r(G)p.r(U)p.d(A)p.d(G)}$$$RNA1{StrandType:ss}|RNA2{StrandType:as}$
systemUnderTest: Cacnb1 (rat)
observed: 48.8

substance: RNA1{r(G)p.r(C)p.r(A)p.r(G)p.r(A)p.r(G)p.r(U)p.r(C)p.r(C)p.r(U)p.r(A)p.r(C)p.r(A)p.r(C)p.r(G)p.r(A)p.r(G)p.r(C)p.r(C)p.d(T)p.d(T)}|RNA2{r(G)p.r(G)p.r(C)p.r(U)p.r(C)p.r(G)p.r(U)p.r(G)p.r(U)p.r(A)p.r(G)p.r(G)p.r(A)p.r(C)p.r(U)p.r(C)p.r(U)p.r(G)p.r(C)p.d(T)p.d(G)}$$$RNA1{StrandType:ss}|RNA2{StrandType:as}$
systemUnderTest: Cacnb1 (rat)
observed: 79.4

Continue with the next substance.
Query block: What measured normalised inhibition (eCFP-eYFP dual reporter) goes with RNA1{r(A)p.r(A)p.r(G)p.r(G)p.r(G)p.r(C)p.r(G)p.r(G)p.r(U)p.r(U)p.r(C)p.r(A)p.r(A)p.r(A)p.r(A)p.r(G)p.r(G)p.r(U)p.r(C)p.d(T)p.d(T)}|RNA2{r(G)p.r(A)p.r(C)p.r(C)p.r(U)p.r(U)p.r(U)p.r(U)p.r(G)p.r(A)p.r(A)p.r(C)p.r(C)p.r(G)p.r(C)p.r(C)p.r(C)p.r(U)p.r(U)p.d(T)p.d(C)}$$$RNA1{StrandType:ss}|RNA2{StrandType:as}$ ?
Result block: 57.7
